Below: a set of entries, each annotated with reported Inhibition.
Test system: Plasmodium falciparum
Assay: GSK_TCMDC: Inhibition of Plasmodium falciparum 3D7 in whole red blood cells, using parasite LDH activity as an index of growth. Test compounds present at 2uM
Assay type: functional
Provide the reading as a plain figure in %.

As a guide, the following entries are already answered.
Q) Please supply the value of reported Inhibition for the item O=C(/C=C/c1ccc(Cl)c(Cl)c1)NCCCCCN1CCC(n2c(=O)[nH]c3ccccc32)CC1
A) 97

Q) Please supply the value of reported Inhibition for the item COc1ccc(Cl)cc1N1CCN(CCCNC(=O)c2ccc(-c3nc4cc5ccccc5cc4[nH]3)c(F)c2)CC1
A) 99

Q) Please supply the value of reported Inhibition for the item Cc1ccccc1C1CCN(c2ncc(C(=O)NC3CC3)cc2Cl)CC1.O=C(O)C(F)(F)F
A) 96

Others:
Q) Please supply the value of reported Inhibition for the item CC(C)C(=O)Nc1c(F)cc(F)cc1CCc1ccc(O)cc1
A) 90

Q) Please supply the value of reported Inhibition for the item Cc1ccc(NCc2cccc(F)c2)cc1S(=O)(=O)N[C@@H]1CCN(C#N)C1
A) 89

Q) Please supply the value of reported Inhibition for the item NC(=O)c1ccsc1NC(=O)CNC(c1ccccc1)c1ccccc1
A) 88

Q) Please supply the value of reported Inhibition for the item O=C(Cc1ccc(-c2ccccc2)cc1)N[C@H]1CCN(Cc2ccc(OCCCN3CCCCC3)cc2)C1
A) 99

Q) Please supply the value of reported Inhibition for the item CC(C)Cc1ccc(N2CCN(CCCCNC(=O)c3ccc(NC(=O)c4cc(C(F)(F)F)cc(C(F)(F)F)c4)cc3)CC2)cc1
A) 100

Q) Please supply the value of reported Inhibition for the item c1cc2[nH]c(CCc3nc4cc(C5=NC6CCCCC6N5)ccc4[nH]3)nc2cc1C1=NC2CCCCC2N1 (centres undefined)
A) 93

Q) Please supply the value of reported Inhibition for the item O=[N+]([O-])c1ccc(N2CCCN(C(=S)Nc3ccc(F)cc3Br)CC2)nc1
A) 100

Q) Please supply the value of reported Inhibition for the item Cc1ccccc1OCCCN1CCN(CC(c2ccc(F)cc2)N2CCN(C(C)C)CC2)CC1.Cl (centres undefined)
A) 99

Q) Please supply the value of reported Inhibition for the item Clc1ccc2nnc(-c3c(Cl)cccc3Cl)n2n1
A) 96

Q) Please supply the value of reported Inhibition for the item CCCCNCc1ccc(-c2nc(CN(Cc3ccc(Cl)c(Cl)c3)C(=O)CN(C)C)cs2)cc1.O=C(O)C(F)(F)F
A) 100

Q) Please supply the value of reported Inhibition for the item O=C(NC1CCN(Cc2ccc3c(c2)OCCO3)CC1)c1ccc(-c2cccc(Cl)c2)s1.O=C(O)C(F)(F)F
A) 93

Q) Please supply the value of reported Inhibition for the item Cc1[nH]c(C)c(-c2cc3ccccc3o2)c(=O)c1Cl
A) 92

Q) Please supply the value of reported Inhibition for the item Cc1cccc2c3c([nH]c12)C1(CCN(Cc2ccccc2)CC1)NC(C(=O)NCc1ccccc1)C3 (centres undefined)
A) 81

Q) Please supply the value of reported Inhibition for the item Cc1ccc(S(=O)(=O)N(CCCNCc2cccc(O)c2)c2ccccc2)cc1
A) 95

Q) Please supply the value of reported Inhibition for the item Cn1c(N=C2NC3(c4ccccn4)NC(=Nc4nc5ccccc5n4C)NC3(c3ccccn3)N2)nc2ccccc21.O=C(O)C(F)(F)F (centres undefined)
A) 99

Q) Please supply the value of reported Inhibition for the item O=C(O)C(F)(F)F.O=C1CCCN1CCCNCc1cccc(-c2ccc(-c3nc4cc(C(F)(F)F)ccc4[nH]3)cc2)c1
A) 100

Q) Please supply the value of reported Inhibition for the item CC(C)N1CCC(NCc2ccc(-c3ccc(Cl)cc3)cc2)CC1
A) 99

Q) Please supply the value of reported Inhibition for the item COc1ccccc1C1CCN(C2CCC(NC(=O)c3cc4cc(C(C)C)ccc4[nH]3)CC2)CC1 (centres undefined)
A) 100

Q) Please supply the value of reported Inhibition for the item Cl.N=c1n(Cc2ccc(Cl)cc2)c2ccccc2n1CC(O)c1ccc(Cl)c(Cl)c1 (centres undefined)
A) 98

Q) Please supply the value of reported Inhibition for the item CC(=O)c1c[nH]c(C(=O)Nc2ccc(-c3cn4ccccc4n3)cc2)c1
A) 98

Q) Please supply the value of reported Inhibition for the item O=C(Cc1cccs1)NC(CCCN1CCC(Oc2cccc(Cl)c2)CC1)c1ccc(Cl)c(Cl)c1 (centres undefined)
A) 86

Q) Please supply the value of reported Inhibition for the item NS(=O)(=O)c1ccccc1Nc1nc(Nc2ccc(N3CCOCC3)cc2)nc2c1CCC2.O=CO
A) 96

Q) Please supply the value of reported Inhibition for the item CC(=O)Nc1cccc(C(=O)Nc2cccc(-c3ccc(-c4nc5cc(C(F)(F)F)ccc5[nH]4)s3)c2)c1
A) 98
